The measurements presented in this section are drawn from PubChem BioAssay AID1963833.

Tested on: 883617-216-R-J1-PDC complex spheroid viability;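 also: spheroids exposed to compounds for seven days before readout; 100% = DMSO vehicle control viability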
Test: Anticancer human tumor 883617-216-R-J1-PDC patient-derived bladder carcinoma cell line growth inhibition [POLQ]
Details: second compound 0.316 µM; first compound 10 µM; active compounds read low
Description: Multicellular complex tumor spheroid response to Polymerase (POL) inhibitors (novobiocin, ART-558, RP6685) in combination with a variety of drugs and investigational agents in selected tumor cell lines The POL inhibitors (novobiocin, ART-558, and RP6685) were evaluated both individually and in combination with standard of care and investigational anticancer small molecules within a complex spheroid model of solid tumors. . […]
Exercise: state measured viability, T/C for each of the compounds provided.
Kindly answer with a numeric value in %, unit omitted.

Ask: Recall the reported viability, T/C of CCc1cc2c(N3CCc4c(cc(Cn5ccnc5)cc4-c4cn(C)nc4C(F)(F)F)C3=O)ccnc2c(OC)n1 + Nc1ccc(C#CCN(C(=O)Cc2ncc(C(F)(F)F)cc2C(F)(F)F)c2ccc(F)cc2)nn1 on 883617-216-R-J1-PDC complex spheroid viability and write it down.
Result: 59

Ask: Answer with viability, T/C of C#Cc1c(F)ccc2cc(O)cc(-c3ncc4c(N5CC6CCC(C5)N6)nc(OCC56CCCN5CC(F)C6)nc4c3F)c12 (stereo not drawn) + Nc1ccc(C#CCN(C(=O)Cc2ncc(C(F)(F)F)cc2C(F)(F)F)c2ccc(F)cc2)nn1 measured for 883617-216-R-J1-PDC complex spheroid viability.
Result: 84.8

Ask: Write down the reported viability, T/C (system: 883617-216-R-J1-PDC complex spheroid viability) of O=c1[nH]cc(F)c(=O)[nH]1 + Cc1cccc(N(C)C(=O)C2C(O)CCN2c2nc(C)cc(C(F)(F)F)c2C#N)c1;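 also: spheroids exposed to compounds for seven days before readout; 100% = DMSO vehicle control viability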
Result: 64.8
